Source: paper PMC9911399

# experimentalSystem: T1, RBFOX1 RRM (Homo sapiens, UniProt Q9NWB1 109-208)
# T1 sequence: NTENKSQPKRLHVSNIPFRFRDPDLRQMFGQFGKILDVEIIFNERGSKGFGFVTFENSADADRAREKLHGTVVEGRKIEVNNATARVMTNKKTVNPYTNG
# testDetails: EMSA; HiTS-Eq, 1 nM pool, 10 min; buffer printed only for the single-RNA assays: 10 mM Tris pH 7.5, 150 mM NaCl, 3.4 mM EDTA, 0.001% NP-40, 30 C
# conditionsUsed: tags: His6 N-terminal (pET28a); label: 5' 32P
Over roughly 16,000 sequences, “ka relative to ugcaugu” has its median near 0.0091; the highest 2% begin near 0.032. What follows is part of a selection rich in the highest values, with near analogues and random picks from the rest.
Examples of binders with documented binding signal follow.
valueKind: binding signal

{"binder": "UGGCUUG (DNA:RNA) RNA: GGGAGACCGGAAUUCAGAUUGUCCUGGCUUGUUAAAUCCCGUCGUAGCCACCA DNA 1: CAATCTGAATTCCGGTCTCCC DNA 2: TGGTGGCTACGACGGGATT", "valueKind": "binding signal", "recordedValue": "0.0526 KA relative to UGCAUGU"}
{"binder": "GUGCUGG (DNA:RNA) RNA: GGGAGACCGGAAUUCAGAUUGUCCGUGCUGGUUAAAUCCCGUCGUAGCCACCA DNA 1: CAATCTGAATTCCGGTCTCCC DNA 2: TGGTGGCTACGACGGGATT", "valueKind": "binding signal", "recordedValue": "0.0295 KA relative to UGCAUGU"}
